As shown below, each of these compounds has a reported GI50 value.
Tested on: MDA-MB-231
Assay: NCI tumour cell line growth inhibition, 48 h
Activity calls are given as the source filed them. Rule as the data show it: active = GI50 up to about 1.1 µM and inactive = higher.

Study these solved cases before continuing.
# Compound, GI50
data = [
    ("N=C(N)/N=C(\\N)Nc1cnccn1", "> 100 µM (inactive)"),
    ("O=P1(c2ccccc2)C2=CCC=CC2C(c2ccccc2)N1Cc1ccccc1 (stereo unspecified)", "15.9 µM (inactive)"),
]

Value lookup for GI50; key = O=C(NC(OCc1ccccc1)(C(F)(F)F)C(F)(F)F)OCc1ccccc1
17.7 µM (inactive)

###

As shown below, each of these compounds has a reported GI50 value.
System: OVCAR-4
Assay: NCI tumour cell line growth inhibition, 48 h
Active and inactive are the calls of the source. Rule as the data show it: active = GI50 up to about 1.1 µM and inactive = higher.

Study these solved cases before continuing.
# Compound, GI50
data = [
    ("Cc1cc2c(cc1Cl)SC(c1ccccc1)C(=O)NS2(=O)=O (configuration not stated)", "35.4 µM (inactive)"),
    ("CCOc1cc(/C=N\\N(C)C)cc(/C=N\\N(C)C)c1O", "> 100 µM (inactive)"),
    ("Clc1cc2ccccc2c2ccccc12", "42.1 µM (inactive)"),
    ("CN(C)/C=N\\c1cccc2cnccc12", "> 100 µM (inactive)"),
    ("CCOP(=O)(C/C=C/Cn1ncc(=O)[nH]c1=O)OCC", "> 100 µM (inactive)"),
]

Value lookup for GI50; key = Nc1cc(N2CCCC2)nc(=O)n1-c1ccccc1
> 100 µM (inactive)

Check NC(=O)C(=O)Cc1nc2ccccc2s1 too.
> 100 µM (inactive)

Check O=C(O)CCC(=O)c1ccc(Cl)cc1 too.
> 100 µM (inactive)

Check C[C@]12CCC(=O)C(OC(=O)c3ccc([N+](=O)[O-])cc3)=C1CCC2=O too.
> 100 µM (inactive)

Check CCOC(=O)C1(C/C=C\CBr)CCCCCCC1=O (configuration not stated) too.
> 100 µM (inactive)

Check NNC(=S)N/N=C(\CCCC(=O)NCCc1ccccc1)CC(=O)c1ccccc1 too.
> 100 µM (inactive)

Check O=C1OC(C2Cc3ccc4ccccc4c3C2=O)c2ccccc21 (configuration not stated) too.
24.4 µM (inactive)

###

As shown below, each of these compounds has a reported GI50 value.
System: NCI-H226
Assay: NCI tumour cell line growth inhibition, 48 h
The source made the active and inactive calls. Rule as the data show it: active = GI50 up to about 1.1 µM and inactive = higher.

# Compound, GI50
measured = [
    ("CCCCCC(O)C1C(=O)OC(C)C(O)/C=C/C=C/C=C/C=C\\C=C(\\C)C(O)CC(O)CC(O)CC(O)CC(O)CC(O)CC1O (stereo unspecified)", "> 50 µM (inactive)"),
    ("Cc1cccc2c1Oc1ccccc1C2NC(=O)c1ccc([N+](=O)[O-])cc1 (stereo unspecified)", "15.6 µM (inactive)"),
    ("CN1C(=O)C(=Cc2ccc(Br)cc2)C(=O)N(C)C1=O", "> 100 µM (inactive)"),
    ("O=C1C(=c2cc3c(c4ccccc24)=NC24CCCCC2C(c2ccccc2)C=C(c2ccccc2)N34)C(=O)c2ccccc21 (stereo unspecified)", "44.3 µM (inactive)"),
    ("Nc1ncnc2c1ncn2C1OC(COC2C(CO)OC(OC(C(=O)O)C(O)C(OP(=O)(O)O)C(O)C(=O)O)C(O)C2O)C(O)C1O (stereo unspecified)", "> 100 µM (inactive)"),
]

Value lookup for GI50; key = N#CC(C#N)=c1ccc(=C2N3CCCC3CN2C23CC4CC(CC(C4)C2)C3)cc1 (stereo unspecified)
> 100 µM (inactive)

Check C#CC1(O)CCC2C3CCc4cc(Oc5nc(F)nc(-c6c7ccccc7c7n6CCS7)n5)ccc4C3CC[C@@]21C (stereo partly specified) too.
34 µM (inactive)

Check CN(C)c1nc2nonc2nc1Nc1ccccc1 too.
> 100 µM (inactive)

Check CC(=O)Nc1cccc(/N=N/N(C)C)c1 too.
> 100 µM (inactive)

Check COc1ccc2nc3cc(Cl)ccc3c(NC(C)CCCN(CCCl)CCCl)c2c1 (stereo unspecified) too.
0.387 µM (active)

Check CCOC(=O)c1nc2cc(C(F)(F)F)ccc2nc1Oc1ccc(OC)cc1 too.
> 100 µM (inactive)

Check CC1=NN(c2nc(N)nc(C(C#N)C(=O)c3cc4c(cc3Cl)Sc3nccn3S4(=O)=O)n2)C(C)(C)C1 (stereo unspecified) too.
16.5 µM (inactive)

Check COc1ccc2oc(-c3ccncc3)cc(=O)c2c1 too.
> 100 µM (inactive)

Check C=C1C[C@@H]2CC[C@@]34CC5O[C@H]6C(O[C@H]7CC[C@H](CC(=O)O[C@@H]8[C@@H](C)[C@@H]9O[C@@H]%10C[C@]%11(C[C@@H]%12O[C@]%13(C[C@H](C)[C@@H]%14O[C@@H]%15CC(C(O)CO)O[C@@H]%15C[C@@H]%14O%13)C[C@H](C)[C@@H]%12O%11)O[C@@H]%10C[C@@H]9O[C@H]8CC8O[C@@H](CC[C@@H]1O2)C[C@@H](C)C8(O)CO)O[C@@H]7[C@@H]6O3)[C@H]5O4 (stereo partly specified) too.
0.986 µM (active)

Check CCOP(=O)(C/C=C/Cn1ncc(=O)[nH]c1=O)OCC too.
> 100 µM (inactive)

Check CCOC(=O)c1cc(C(O)P2(=O)N(CC(C)(C)C)[C@@H]3CCCC[C@H]3N2CC(C)(C)C)cn1C(=O)OC(C)(C)C (stereo partly specified) too.
20.6 µM (inactive)
